The measured values listed here are drawn from patent US8242111B2.

Measured inhibition at 0.1 µM by item
measuredOn: human 11β-HSD1 (Homo sapiens)
Construct: expressed in transfected cells; host or cells: CHO cells (microsomes)
Sequence (P28845 whole entry): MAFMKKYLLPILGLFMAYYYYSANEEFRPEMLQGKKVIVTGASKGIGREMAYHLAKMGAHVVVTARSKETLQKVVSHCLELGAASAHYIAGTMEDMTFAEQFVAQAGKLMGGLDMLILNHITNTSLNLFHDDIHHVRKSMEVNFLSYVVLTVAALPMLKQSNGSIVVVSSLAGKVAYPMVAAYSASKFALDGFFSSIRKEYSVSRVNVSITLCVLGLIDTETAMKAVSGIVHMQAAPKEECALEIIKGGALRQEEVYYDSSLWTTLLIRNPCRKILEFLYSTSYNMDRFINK
protocol: Biological Test Example 1: inhibition of a microsomal preparation of 11β-HSD1 (SPA)
Assay type: biochemical
details: read-out: Average % inhibition at 100 nM

moleculeSmiles | measuredOn | inhibition at 0.1 µM / %
COc1cnc(N2CC[C@H](N3CC[C@](CC(C)(C)O)(c4ccccc4)OC3=O)C2)nc1 | human 11β-HSD1 (Homo sapiens) | 67.8
CC(C)(O)C[C@]1(c2ccccc2)CCN([C@H]2CCN(c3nccc(C(F)(F)F)n3)C2)C(=O)O1 | human 11β-HSD1 (Homo sapiens) | 94.1
CN(C)C(=O)c1ccc(N2CCC[C@H](N3CC[C@](CCCO)(c4ccc(F)cc4)OC3=O)C2)nc1 | human 11β-HSD1 (Homo sapiens) | 72.5
CC(C)(O)C[C@]1(c2ccccc2)CCN([C@H]2CCN(c3ccc(C(F)(F)F)cn3)C2)C(=O)O1 | human 11β-HSD1 (Homo sapiens) | 92.2
Cc1nnc(N2CCC[C@H](N3CC[C@](CC(C)(C)O)(c4ccccc4)OC3=O)C2)cc1Cl | human 11β-HSD1 (Homo sapiens) | 20.9
NC(=O)c1ccc(N2CCC[C@H](N3CC[C@](CCCO)(c4ccc(F)cc4)OC3=O)C2)nc1 | human 11β-HSD1 (Homo sapiens) | 81.6
O=C1O[C@@](CCCO)(c2ccc(F)cc2)CCN1[C@H]1CCCN(c2ccc(C(F)(F)F)cn2)C1 | human 11β-HSD1 (Homo sapiens) | 94.9
